EXPERIMENTAL_PARAMETERS: in ethyl acetate, 268.2 K
MEASUREMENT_LABEL: solubility (mole fraction)
Please give only the number in your answer, with no unit.

Exercise: Consider the compound `C=C1CC[C@H](O)C/C1=C/C=C1\CCC[C@]2(C)[C@@H]([C@H](C)CCCC(C)C)CC[C@@H]12` and give its recorded solubility (mole fraction).
Key: 0.0639

* * *

EXPERIMENTAL_PARAMETERS: in methanol, 253.2 K
MEASUREMENT_LABEL: solubility (mole fraction)
Write the value as a bare number.

Exercise: Find the measured solubility (mole fraction) of `C=C1CC[C@H](O)C/C1=C/C=C1\CCC[C@]2(C)[C@@H]([C@H](C)CCCC(C)C)CC[C@@H]12` and report it.
Key: 0.00249

* * *

EXPERIMENTAL_PARAMETERS: in n-propanol, 263.2 K
MEASUREMENT_LABEL: solubility (mole fraction)

Exercise: Tell us which solubility (mole fraction) value is on record for `C=C1CC[C@H](O)C/C1=C/C=C1\CCC[C@]2(C)[C@@H]([C@H](C)CCCC(C)C)CC[C@@H]12`
Key: 0.136

* * *

EXPERIMENTAL_PARAMETERS: in acetone, 258.2 K
MEASUREMENT_LABEL: solubility (mole fraction)
Kindly provide the number alone.

Exercise: Let me know recorded solubility (mole fraction) for `C=C1CC[C@H](O)C/C1=C/C=C1\CCC[C@]2(C)[C@@H]([C@H](C)CCCC(C)C)CC[C@@H]12` , thanks.
Key: 0.0106

* * *

EXPERIMENTAL_PARAMETERS: in n-propanol, 253.2 K
MEASUREMENT_LABEL: solubility (mole fraction)
// no unit, no text: just the number

Exercise: Please list solubility (mole fraction) recorded for the compound `C=C1CC[C@H](O)C/C1=C/C=C1\CCC[C@]2(C)[C@@H]([C@H](C)CCCC(C)C)CC[C@@H]12`
Key: 0.0873

* * *

EXPERIMENTAL_PARAMETERS: in acetone, 253.2 K
MEASUREMENT_LABEL: solubility (mole fraction)
Please state the value as a number alone, without comment.

Exercise: Provide one value: measured solubility (mole fraction) of `C=C1CC[C@H](O)C/C1=C/C=C1\CCC[C@]2(C)[C@@H]([C@H](C)CCCC(C)C)CC[C@@H]12`
Key: 0.00805

* * *

EXPERIMENTAL_PARAMETERS: in n-propanol, 248.2 K
MEASUREMENT_LABEL: solubility (mole fraction)
Give the figure by itself; no unit, no explanation.

Exercise: Give the reported solubility (mole fraction) for this compound. `C=C1CC[C@H](O)C/C1=C/C=C1\CCC[C@]2(C)[C@@H]([C@H](C)CCCC(C)C)CC[C@@H]12`
Key: 0.0647

* * *

EXPERIMENTAL_PARAMETERS: in ethyl acetate, 263.2 K
MEASUREMENT_LABEL: solubility (mole fraction)
Answer as a number with no unit attached.

Exercise: State its solubility (mole fraction) for this compound: `C=C1CC[C@H](O)C/C1=C/C=C1\CCC[C@]2(C)[C@@H]([C@H](C)CCCC(C)C)CC[C@@H]12`
Key: 0.0478

* * *

EXPERIMENTAL_PARAMETERS: in ethanol, 248.2 K
MEASUREMENT_LABEL: solubility (mole fraction)
# output: bare number, no unit

Exercise: Read off the recorded solubility (mole fraction) for `C=C1CC[C@H](O)C/C1=C/C=C1\CCC[C@]2(C)[C@@H]([C@H](C)CCCC(C)C)CC[C@@H]12`
Key: 0.0532
